- System: surinam grass
- ASSAY REMARKS: Test B pre/postemergence surinam grass
- Assay type: in vivo, Brachiaria decumbens
- TEST PARAMETERS: Preemergence, Rate 500 g/ha; scale of 0 to 10 where 0 is no effect and 10 is complete control
Classification field: enter True for B. signalgrass plant response rating values not below 7, False for values below it.

Prompt: Does the molecule CC(C)N(C(=O)n1oc(=O)n(CCc2ccccc2)c1=O)c1ccccc1 [Compound 567] have recorded B. signalgrass plant response rating that is 7 or more?
Completion: True

Prompt: Another molecule: CC(C)N(C(=O)n1oc(=O)n(CC2(C)COC2)c1=O)c1ccccc1 [Compound 420]
Completion: True

Prompt: Further, for CC(C)N(C(=O)n1oc(=O)n(CC#N)c1=O)c1ccc(F)cc1 [Compound 395] ?
Completion: False

Prompt: Field entry: CC(C)N(C(=O)n1oc(=O)n(CC2CCC2)c1=O)c1ccc(Cl)cc1 [Compound 550]
Completion: True

Prompt: Note, next up: CC(C)N(C(=O)n1oc(=O)n(N2C(C)CCCC2C)c1=O)c1ccc(F)cc1F (stereo not drawn) [Compound 383]
Completion: False

Prompt: Try CC(C)N(C(=O)n1oc(=O)n(CC(C)[N+](=O)[O-])c1=O)c1ccc(F)cc1F (stereo not drawn) [Compound 603] next.
Completion: False

Prompt: Then CC1CC1n1c(=O)on(C(=O)N(c2ccc(F)cc2F)C(C)C)c1=O (stereo not drawn) [Compound 372] ?
Completion: True

Prompt: Try the molecule Cc1cccc(C(C)(C)C)c1-n1c(=O)on(C(=O)N(c2ccccc2)C(C)C)c1=O [Compound 303]
Completion: False

----------
- System: soybean
- ASSAY REMARKS: Test B pre/postemergence soybean
- Assay type: in vivo, Glycine max
- TEST PARAMETERS: Preemergence, Rate 125 g/ha; 0 is no effect, 10 is complete control
Assign Soybean plant response rating (0 to 10 scale) to each entry below.
Could you respond with only the numeric value?

Prompt: Given `Cc1noc(C)c1-n1c(=O)on(C(=O)N(c2ccc(F)cc2F)C(C)C)c1=O` , state its recorded Soybean plant response rating (0 to 10 scale).
Completion: 0

Prompt: Cool, now `Cc1ccccc1-n1c(=O)on(C(=O)N(c2c(F)cccc2F)C(C)C)c1=O`
Completion: 0

Prompt: And then `Cc1nsc(C)c1-n1c(=O)on(C(=O)N(c2ccc(F)cc2F)C(C)C)c1=O` , what is it?
Completion: 0

Prompt: Again, but for `C=CCn1c(=O)on(C(=O)N(c2ccc(F)cc2F)C2CC2)c1=O`
Completion: 0

----------
- Test system: green foxtail
- ASSAY REMARKS: Test E green foxtail
- Type: in vivo, Setaria viridis
- TEST PARAMETERS: Preemergence, Rate 500 g/ha; 0 to 100 scale (0 no effect, 100 complete control)
OUTCOME MEASURE: Plant response rating, Green foxtail
The answer should be a number; do not append a unit.

Prompt: Value lookup for Plant response rating, Green foxtail; key = `CC(C)N(C(=O)n1oc(=O)n(C2CCC2)c1=O)c1ccc(F)cc1F`
Completion: 85

Prompt: Now try CC1CC1n1c(=O)on(C(=O)N(c2ccc(F)cc2)C(C)C)c1=O (stereo not shown) .
Completion: 85

Prompt: # iterate: CC1CC1n1c(=O)on(C(=O)N(c2ccccc2)C(C)C)c1=O (stereo not shown)
Completion: 100

Prompt: Input CC1CC1n1c(=O)on(C(=O)N(c2ccc(F)cc2F)C(C)C)c1=O (stereo not shown)
Completion: 100

----------
- System: giant foxtail
- ASSAY REMARKS: Test B pre/postemergence giant foxtail
- Type: in vivo, Setaria faberii
- TEST PARAMETERS: Preemergence, Rate 250 g/ha; scale of 0 to 10 where 0 is no effect and 10 is complete control
OUTCOME MEASURE: Giant foxtail plant response rating
// return just the number, without any unit appended

Prompt: Query the reported Giant foxtail plant response rating for giant foxtail; item: `COc1cc(C)cc(C)c1-n1c(=O)on(C(=O)N(c2ccc(F)cc2)C(C)C)c1=O`
Completion: 7

Prompt: Lookup CC(C)N(C(=O)n1oc(=O)n(CC2CCCO2)c1=O)c1ccc(F)cc1 (stereo not shown)
Completion: 10

Prompt: Now consider CCOC(=O)C(C)N(C(=O)n1oc(=O)n(-c2ccccc2C)c1=O)c1ccc(F)cc1 (stereo not shown) .
Completion: 2

Prompt: And then `CC(C)N(C(=O)n1oc(=O)n(C2CCCC2)c1=O)c1ccc(F)cc1` , what is it?
Completion: 10

----------
- System: surinam grass
- ASSAY REMARKS: Test B pre/postemergence surinam grass
- Type: in vivo, Brachiaria decumbens
- TEST PARAMETERS: Rate 125 g/ha; Postemergence; scale 0 to 10, 0 no effect, 10 complete control
Exercise: for every item that follows, state its recorded B. signalgrass plant response rating.
Number only, no unit.

Prompt: # query: B. signalgrass plant response rating of entry COc1cccc(C)c1-n1c(=O)on(C(=O)N(c2ccc(F)cc2)C(C)C)c1=O [Compound 62]
Completion: 0

Prompt: Same lookup for Cc1ccc(-n2c(=O)on(C(=O)N(c3ccc(F)cc3F)C(C)C)c2=O)c(C)c1 [Compound 24] , please.
Completion: 3

Prompt: Quick one: CC(C)N(C(=O)n1oc(=O)n(C(C)C)c1=O)c1ccccc1 [Compound 113]
Completion: 7

Prompt: Field entry: CCN(CC)C(=O)n1oc(=O)n(-c2ccc(F)cc2)c1=O [Compound 3]
Completion: 0

----------
Would you kindly list Velvetleaf plant response rating for each of these compounds?
- Test system: velvetleaf
- ASSAY REMARKS: Test B pre/postemergence velvetleaf
- Type: in vivo, Abutilon theophrasti
- TEST PARAMETERS: Preemergence, Rate 250 g/ha; scale 0 to 10, 0 is no effect, 10 is complete control
Please reply with the number alone, leaving off any unit.

Prompt: Dear colleague, I am looking for the recorded Velvetleaf plant response rating of the following compound: CC(C)N(C(=O)n1oc(=O)n(Cc2ccccc2Cl)c1=O)C1=CCCCC1 [Compound 145]
Completion: 0

Prompt: Also need CC(C)N(C(=O)n1oc(=O)n(CCC#N)c1=O)c1ccc(Cl)cc1 [Compound 444] , thanks.
Completion: 0

Prompt: # repeat for Cc1noc(C)c1-n1c(=O)on(C(=O)N(c2ccc(F)cc2F)C(C)C)c1=O [Compound 156]
Completion: 0

Prompt: Now this one: Cc1ccccc1-n1c(=O)on(C(=O)N(c2ccc(F)cc2Cl)C(C)C)c1=O [Compound 186]
Completion: 2

Prompt: Same lookup for Cc1nsc(C)c1-n1c(=O)on(C(=O)N(c2ccc(F)cc2F)C(C)C)c1=O [Compound 158] , please.
Completion: 0

Prompt: Can you handle CCc1nc(C)c(C(C)n2c(=O)on(C(=O)N(c3ccc(F)cc3)C(C)C)c2=O)s1 (stereo not drawn) [Compound 449] next?
Completion: 0

----------
- System: velvetleaf
- ASSAY REMARKS: Test B pre/postemergence velvetleaf
- Assay type: in vivo, Abutilon theophrasti
- TEST PARAMETERS: Preemergence, Rate 62 g/ha; scale 0 to 10 (0 no effect, 10 complete control)
Assign Plant response rating, Velvetleaf to each entry below.

Prompt: What value of Plant response rating, Velvetleaf has been reported for the following compound? CC(C)N(C(=O)n1oc(=O)n(CC2CCCO2)c1=O)c1ccc(F)cc1 (stereo not drawn)
Completion: 5

Prompt: And then `CC(C)N(C(=O)n1oc(=O)n(C2CCC2)c1=O)c1ccc(F)cc1F` , what is it?
Completion: 0

Prompt: Likewise for CC1CC1n1c(=O)on(C(=O)N(c2ccc(F)cc2)C(C)C)c1=O (stereo not drawn) ?
Completion: 0

Prompt: Now the compound CC(C)N(C(=O)n1oc(=O)n(CC2CCOC2)c1=O)c1ccc(F)cc1 (stereo not drawn)
Completion: 0

Prompt: Same lookup for `CC(C)Cn1c(=O)on(C(=O)N(c2ccccc2)C(C)C)c1=O` , please.
Completion: 3

Prompt: Consider next the compound `CC(C)N(C(=O)n1oc(=O)n(CC#N)c1=O)c1ccc(F)cc1` in the same way.
Completion: 0

----------
For each entry below, report its Plant response rating, Soybean value.
- Test system: soybean
- ASSAY REMARKS: Test B pre/postemergence soybean
- Format: in vivo, Glycine max
- TEST PARAMETERS: Rate 500 g/ha, Postemergence; scale 0 to 10, 0 no effect, 10 complete control
When you answer, write just the number.

Prompt: # get_value(readout= Plant response rating, Soybean, system= soybean) for COCC(C)n1c(=O)on(C(=O)N(c2ccc(F)cc2F)C(C)C)c1=O (stereo not drawn) [Compound 357]
Completion: 3

Prompt: Same again, this time with CC(C)N(C(=O)n1oc(=O)n(C)c1=O)c1ccc(F)cc1F [Compound 368]
Completion: 5

Prompt: Subsequent entry: CC(C)N(C(=O)n1oc(=O)n(C2CCC2)c1=O)c1ccc(F)cc1F [Compound 351]
Completion: 2

Prompt: Please do the same for CC(C)N(C(=O)n1oc(=O)n(C2CC3CCC2C3)c1=O)c1ccc(F)cc1 (stereo not drawn) [Compound 327] as well.
Completion: 7

Prompt: # repeat for CC(C)N(C(=O)n1oc(=O)n(C2(C)CC2)c1=O)c1ccc(Cl)cc1 [Compound 361]
Completion: 5

Prompt: Now the same for CC1CC1n1c(=O)on(C(=O)N(c2ccc(F)cc2F)C(C)C)c1=O (stereo not drawn) [Compound 372]
Completion: 3
